Molecular target: T1, biotinylated recombinant his-tagged MrkA, mixture of monomeric and oligomeric MrkA (Klebsiella pneumoniae, UniProt P12267 23-202, biotin-labeled (Pierce kit; sites not stated))
T1 construct: also called biotinylated-MrkA; a mixture of monomeric and multimeric MrkA; not shown: his tag
T1 chain: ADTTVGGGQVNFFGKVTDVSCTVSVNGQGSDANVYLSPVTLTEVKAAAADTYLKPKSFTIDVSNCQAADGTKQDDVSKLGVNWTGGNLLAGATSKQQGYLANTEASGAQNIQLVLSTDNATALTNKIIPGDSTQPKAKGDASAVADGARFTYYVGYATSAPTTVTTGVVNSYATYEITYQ
Assay: ELISA, MrkA protein coated directly onto the plate, not biotinylated (title: anti-MrkA IgG binding to MrkA)
Endpoint label: EC50 (read off the curve)

What does the record list as EC50 (read off the curve) for anti-MrkA clone 5 (IgG1) (antibody, V domains shown, also called St3_C5; IgG clone 5) VH: QVQLVQSGAEVKKPGASLKVSCKASGYTFTAYYMHWVRQAPGHGLEWMGWINPSSGGTNSAQKFQGRVTMTRDTSINTAYMELSRLTSDDTAVYYCARGTIGAAGNYWGQGTLVTVSS VL: QSVLTQPPSASGTPGQRVTISCSGSRPNIGGNTVNWYQQLPGAAPKLLIYSNSQRPSGVPDRFSGSKYGTSASLAISGLQSDDEADYYCAAWDDSLTGPVFGGGTKLTIL ?
~0.01 µg/mL
